System: SF-539
protocol description: NCI tumour cell line growth inhibition, 48 h
Active and inactive are the calls of the source. Rule as the data show it: active = GI50 up to about 1.1 µM and inactive = higher.
Outcome (select one): active, inactive

Example cases with answers are listed next.
molecule	cat
CN(C)c1ccc(/C=C2\C[C@H]3[C@@H]4CCc5cc(OCCN6CCCC6)ccc5[C@H]4CC[C@]3(C)[C@H]2O)cc1	inactive
COc1ccc2cc(NC(=O)N/N=C\c3ccc(Cl)cc3)ccc2c1	inactive
C=CCSSCC=C	inactive
C=CCc1ccccc1C1CC2(C(=O)OC)OC1C(C(=O)OC)=C2C(=O)OC (centres undefined)	inactive
COC(=O)C1Cc2c(OC)ccc(OC)c2CC(C(=O)OC)C1=O (centres undefined)	inactive

Tell me the assay call for "CC(C)OC(=O)c1ccc(NCC2=CC(=O)C=CC2=O)cc1" please.
inactive

Tell me the assay call for "COC(=O)c1c(O)ccc2c1c1c(n2CCc2ccccc2)C(=O)c2ccccc2C1=O" please.
inactive

Tell me the assay call for CC(=O)O[C@H]1C(=O)[C@@]2(C)C(C(OC(=O)c3ccccc3)[C@]3(O)CC(OC(=O)[C@H](OC(=O)CCC(=O)O)C(NC(=O)c4ccccc4)c4ccccc4)C(C)=C1C3(C)C)C1(OC(C)=O)COC1C[C@@H]2O (some centres undefined) please.
active

Tell me the assay call for "CCOc1ccc(Nc2nc(N)nc(N)c2N)cc1" please.
inactive
